biological target: B-cell lymphoma 6 protein (Homo sapiens, UniProt P41182); test: Binding affinity to recombinant N-terminal GST-tagged/RED-NHS labelled wild-type BCL6 BTB domain (5 to 129 residues) (unknown origin) expressed in Escherichia coli Rosetta BL21 (DE3) at 1 mM incubated for 30 mins under dark condition in by single-point microscale thermophoresis method
Active and inactive are the calls of the source. No cut-off for these calls is given here. Where a SMILES comes first, the peptide text is derived from it.
One label from this list, please: 1 for active, 0 for inactive

molecule="CC(C)[C@@H]1NC(=O)[C@H](CS)NC(=O)[C@H](Cc2ccc(O)cc2)NC(=O)[C@H](Cc2ccc(O)cc2)NC(=O)[C@H](C)NC(=O)[C@H](CS)NC1=O (cyclo(AYYCVC))" target_of_assay="B-cell lymphoma 6 protein (Homo sapiens, UniProt P41182)" class_label=1
molecule=CC[C@@H](C)[C@@H]1NC(=O)[C@H](CS)NC(=O)[C@H](C(C)C)NC(=O)[C@H](CS)NC(=O)[C@H](Cc2ccc(O)cc2)NC(=O)[C@H](Cc2ccc(O)cc2)NC1=O target_of_assay="B-cell lymphoma 6 protein (Homo sapiens, UniProt P41182)" class_label=1
molecule=CC[C@@H](C)[C@@H]1NC(=O)[C@H](CS)NC(=O)[C@H](C(C)C)NC(=O)[C@H](C)NC(=O)[C@H](Cc2ccc(O)cc2)NC(=O)[C@H](Cc2ccc(O)cc2)NC1=O target_of_assay="B-cell lymphoma 6 protein (Homo sapiens, UniProt P41182)" class_label=0
molecule=CC[C@@H](C)[C@@H]1NC(=O)[C@H](C)NC(=O)[C@H](C(C)C)NC(=O)[C@H](CS)NC(=O)[C@H](Cc2ccc(O)cc2)NC(=O)[C@H](Cc2ccc(O)cc2)NC1=O target_of_assay="B-cell lymphoma 6 protein (Homo sapiens, UniProt P41182)" class_label=0

stdin: # outcome recorded in this test, key = `CC[C@@H](C)[C@@H]1NC(=O)[C@H](CS)NC(=O)[C@H](C(C)C)NC(=O)[C@H](CS)NC(=O)[C@H](Cc2ccc(O)cc2)NC(=O)[C@H](C)NC1=O`
stdout: 1

stdin: # outcome recorded in this test, key = `CC[C@@H](C)[C@@H]1NC(=O)[C@H](CS)NC(=O)[C@H](C)NC(=O)[C@H](CS)NC(=O)[C@H](Cc2ccc(O)cc2)NC(=O)[C@H](Cc2ccc(O)cc2)NC1=O`
stdout: 1

stdin: # outcome recorded in this test, key = `CC[C@@H](C)[C@@H]1NC(=O)[C@H](CS)NC(=O)[C@H](C(C)C)NC(=O)[C@H](CS)NC(=O)[C@H](C)NC(=O)[C@H](Cc2ccc(O)cc2)NC1=O`
stdout: 0

Entry source: ChEMBL document CHEMBL4219159
